Tested on: T1, hROR2ECD-his (human, UniProt Q01974 34-403)
T1 construct: extracellular domain; bought, Acrobiosystems R02-H52E5; also called huROR2-his
T1 sequence (Q01974 34-403): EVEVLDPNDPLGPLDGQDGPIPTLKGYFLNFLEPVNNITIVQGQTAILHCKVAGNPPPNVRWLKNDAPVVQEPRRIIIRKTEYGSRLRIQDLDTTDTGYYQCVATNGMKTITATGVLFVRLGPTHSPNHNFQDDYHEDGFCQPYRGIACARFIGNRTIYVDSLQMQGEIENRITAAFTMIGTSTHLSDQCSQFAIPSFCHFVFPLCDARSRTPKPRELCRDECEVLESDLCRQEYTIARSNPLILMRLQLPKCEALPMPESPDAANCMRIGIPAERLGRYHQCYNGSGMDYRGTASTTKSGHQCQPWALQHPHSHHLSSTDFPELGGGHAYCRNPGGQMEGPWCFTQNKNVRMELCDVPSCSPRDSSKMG
Assay procedure: ELISA, plate coated with hROR2 ECD-his
Measurement kind: binding result

PR001361 (antibody, V domains shown, fully human IgG1, kappa) VH: QVQLVQSGGGVVQPGRSLRLSCTASGFTFSRYGMLWVRQAPGKGLEWVAVAWYDGVSEDYADSVKGRFTISRDNSMNTLSLQMNSLRAEDTAVYYCAREQARSFDLWGRGTLVTVSS VL: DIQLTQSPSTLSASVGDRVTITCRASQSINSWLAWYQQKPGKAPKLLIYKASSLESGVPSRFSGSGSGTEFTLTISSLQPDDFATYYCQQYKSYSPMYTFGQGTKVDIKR: no binding
PR001363 (antibody, human IgG1, kappa, V domains shown, fully human IgG1, kappa) VH: QVQLVESGGGVVQPGRSLRLSCAASGFSFSSYAMHWVRQAPGRGLEWVAVIWYDGGDEDSIDSVKGRFTISRDDSKNTLYLQMNSLRAEDTAVYYCAREQARSFDLWGRGTLVTVSS VL: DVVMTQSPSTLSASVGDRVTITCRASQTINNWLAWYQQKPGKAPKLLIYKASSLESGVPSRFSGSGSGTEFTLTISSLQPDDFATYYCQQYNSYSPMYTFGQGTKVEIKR: no binding
